Test system: 966289-007-R4-J1-PDC complex spheroid viability
experiment_summary: Anticancer human tumor 966289-007-R4-J1-PDC patient-derived pancreatic adenocarcinoma cell line growth inhibition [GQUAD]
condition_description: second compound 1 µM; first compound 0.1 µM; active compounds read low
parameter: viability, T/C

Known results for compounds:
Cc1cccc(N(C)C(=O)C2C(O)CCN2c2nc(C)cc(C(F)(F)F)c2C#N)c1 (centres undefined) + Cc1[nH]c2ccc(F)cc2c1-c1nc2c3cccnc3c3ncccc3c2[nH]1 | 96.8%
O=C(c1cc(Cc2n[nH]c(=O)c3ccccc23)ccc1F)N1CCN(C(=O)C2CC2)CC1 + CN(C)c1ccc(Nc2c3ccc(NC(=O)CCN4CCCC4)cc3nc3cc(NC(=O)CCN4CCCC4)ccc23)cc1 | 99.3%
CC(=O)O[C@H]1C(=O)[C@@]2(C)[C@H]([C@H](OC(=O)c3ccccc3)[C@]3(O)C[C@H](OC(=O)[C@H](O)[C@@H](NC(=O)c4ccccc4)c4ccccc4)C(C)=C1C3(C)C)[C@]1(OC(C)=O)CO[C@@H]1C[C@@H]2O + Cc1cnc(CNC(=O)c2c(=O)c3ccc(N4CCCN(C)CC4)nc3n3c2sc2ccccc23)cn1 | 3.94%
CC(C)(O)C1CCC(Nc2ccc3ncc(-c4cccc(C(F)(F)F)c4)n3n2)CC1 (centres undefined) + Cc1cnc(CNC(=O)c2c(=O)c3ccc(N4CCCN(C)CC4)nc3n3c2sc2ccccc23)cn1 | 5.79%
COc1ccc([C@@H](O)c2cc(-c3ncnc4cc(N5CCOCC5)ccc34)c(F)cc2Cl)nn1 + CN(C)c1ccc(Nc2c3ccc(NC(=O)CCN4CCCC4)cc3nc3cc(NC(=O)CCN4CCCC4)ccc23)cc1 | 101%

Request: State its viability, T/C for this compound: O=c1[nH]cc(F)c(=O)[nH]1 + Cc1cnc(CNC(=O)c2c(=O)c3ccc(N4CCCN(C)CC4)nc3n3c2sc2ccccc23)cn1
Result: 8.36%

###

Quick list: viability, T/C per entry.
Test system: 966289-007-R4-J1-PDC complex spheroid viability
experiment_summary: Anticancer human tumor 966289-007-R4-J1-PDC cell line growth inhibition [GQUAD];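 also: spheroids exposed to the agents for seven days before readout; percent viability relative to DMSO vehicle control wells taken as 100%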
condition_description: second compound 1 µM; first compound 0.316 µM; active compounds read low
Answer format: numeric, % implied, no suffix.

Known results for molecules:
O=C(c1cc(Cc2n[nH]c(=O)c3ccccc23)ccc1F)N1CCN(C(=O)C2CC2)CC1 + Cc1[nH]c2ccc(F)cc2c1-c1nc2c3cccnc3c3ncccc3c2[nH]1 | 108
COc1ncnc(C2CC2)c1-c1ncc2cnn(Cc3ccc(-c4nc(C(F)(F)F)cn4C(C)C)cc3)c2n1 + CN(C)c1ccc(Nc2c3ccc(NC(=O)CCN4CCCC4)cc3nc3cc(NC(=O)CCN4CCCC4)ccc23)cc1 | 104
Cc1cccc(N(C)C(=O)C2C(O)CCN2c2nc(C)cc(C(F)(F)F)c2C#N)c1 (stereo not given) + Cc1[nH]c2ccc(F)cc2c1-c1nc2c3cccnc3c3ncccc3c2[nH]1 | 98.7
O=C(NO)c1cnc(N2CCN(S(=O)(=O)c3ccc4ccccc4c3)CC2)nc1 + Cc1cnc(CNC(=O)c2c(=O)c3ccc(N4CCCN(C)CC4)nc3n3c2sc2ccccc23)cn1 | 3.68

Lab note: next molecule to report on.
Request: State its viability, T/C for this molecule: C=CC(=O)N1CCN(c2nc(=O)n(-c3c(C)ccnc3C(C)C)c3nc(-c4c(O)cccc4F)c(F)cc23)C(C)C1 (stereo not given) + Cc1cnc(CNC(=O)c2c(=O)c3ccc(N4CCCN(C)CC4)nc3n3c2sc2ccccc23)cn1
Result: 5.81
